Below: a set of entries, each annotated with reported IC50.
SUBJECT_OF_TEST: UniProt:Q9NYK1
Sequence (Q9NYK1 27-1049): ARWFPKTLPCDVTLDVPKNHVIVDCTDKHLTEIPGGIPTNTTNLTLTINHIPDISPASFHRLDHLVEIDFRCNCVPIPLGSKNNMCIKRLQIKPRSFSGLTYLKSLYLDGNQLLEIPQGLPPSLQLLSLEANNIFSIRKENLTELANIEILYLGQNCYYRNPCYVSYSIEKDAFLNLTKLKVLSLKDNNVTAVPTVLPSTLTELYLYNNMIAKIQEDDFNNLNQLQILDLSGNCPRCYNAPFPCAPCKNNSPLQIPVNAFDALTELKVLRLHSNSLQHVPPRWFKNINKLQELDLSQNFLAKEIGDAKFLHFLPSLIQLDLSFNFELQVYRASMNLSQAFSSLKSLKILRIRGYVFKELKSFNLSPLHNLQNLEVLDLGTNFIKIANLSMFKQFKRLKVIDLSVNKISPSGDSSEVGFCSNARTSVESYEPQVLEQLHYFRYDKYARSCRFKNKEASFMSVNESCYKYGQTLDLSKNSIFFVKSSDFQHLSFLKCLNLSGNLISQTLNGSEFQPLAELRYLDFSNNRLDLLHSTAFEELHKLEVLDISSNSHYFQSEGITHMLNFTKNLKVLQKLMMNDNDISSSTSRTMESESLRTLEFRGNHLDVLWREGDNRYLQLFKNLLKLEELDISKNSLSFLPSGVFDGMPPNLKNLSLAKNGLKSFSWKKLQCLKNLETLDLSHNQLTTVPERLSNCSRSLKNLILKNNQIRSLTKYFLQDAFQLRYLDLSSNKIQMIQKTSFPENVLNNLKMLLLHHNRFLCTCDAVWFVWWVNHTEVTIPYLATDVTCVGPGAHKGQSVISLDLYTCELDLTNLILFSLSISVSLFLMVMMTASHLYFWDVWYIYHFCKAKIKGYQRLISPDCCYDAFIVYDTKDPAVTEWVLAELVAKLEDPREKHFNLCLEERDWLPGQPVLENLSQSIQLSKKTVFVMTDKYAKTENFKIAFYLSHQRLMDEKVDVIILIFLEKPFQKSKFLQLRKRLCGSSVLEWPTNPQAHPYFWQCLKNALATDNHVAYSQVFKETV
PROTOCOL_DETAILS: TLR7 inhibition reporter assay (HEK-Blue SEAP reporter, gardiquimod stimulation)
MEASUREMENT_SETUP: HEK-Blue cells overexpressing human TLR7, SEAP reporter, gardiquimod 7.5 μM, 22 hour incubation

# LINE_NOTATION, IC50
measured = [
    ("CNC(=O)CN1CCC(c2ccc3[nH]c(-c4cc(C)c(=O)n(Cc5ccccc5)c4)c(C(C)C)c3c2)CC1", "8.4 nM"),
    ("COCc1cc(-c2[nH]c3ccc(C4CCN(C5COC5)CC4)cc3c2C(C)C)cn(C)c1=O", "37.9 nM"),
    ("CC(C)c1c(-c2cc(-c3cncnc3)c(=O)n(C)c2)[nH]c2ccc(C3CCN(C(C)C)CC3)cc12", "6 nM"),
    ("CC(C)c1c(-c2cc(-c3cncnc3)c(=O)n(C)c2)[nH]c2ccc(C3CCN(CC4COC4)CC3)cc12", "8 nM"),
]
